Known EC50 (read off the curve) of a selection of binders
biological target: T1, human CD103 (integrin Alpha-E) / human integrin Beta-7 heterodimer on cells (human, UniProt P38570 19-1179; P26010 20-798); test: cell ELISA on CHO.K1-humanCD103/beta7 cells, abs 450-610
T1 construct: The same id is used for native CD103 on human CD103+CD8+ T cells (tumor digests, TGF-beta induced T cells); the assay field tells which cells; also called hCD103/hBeta7; CHO.K1-hCD103/hBeta7
T1 sequence (P38570 19-1179 limits assumed, chain 1 of 2): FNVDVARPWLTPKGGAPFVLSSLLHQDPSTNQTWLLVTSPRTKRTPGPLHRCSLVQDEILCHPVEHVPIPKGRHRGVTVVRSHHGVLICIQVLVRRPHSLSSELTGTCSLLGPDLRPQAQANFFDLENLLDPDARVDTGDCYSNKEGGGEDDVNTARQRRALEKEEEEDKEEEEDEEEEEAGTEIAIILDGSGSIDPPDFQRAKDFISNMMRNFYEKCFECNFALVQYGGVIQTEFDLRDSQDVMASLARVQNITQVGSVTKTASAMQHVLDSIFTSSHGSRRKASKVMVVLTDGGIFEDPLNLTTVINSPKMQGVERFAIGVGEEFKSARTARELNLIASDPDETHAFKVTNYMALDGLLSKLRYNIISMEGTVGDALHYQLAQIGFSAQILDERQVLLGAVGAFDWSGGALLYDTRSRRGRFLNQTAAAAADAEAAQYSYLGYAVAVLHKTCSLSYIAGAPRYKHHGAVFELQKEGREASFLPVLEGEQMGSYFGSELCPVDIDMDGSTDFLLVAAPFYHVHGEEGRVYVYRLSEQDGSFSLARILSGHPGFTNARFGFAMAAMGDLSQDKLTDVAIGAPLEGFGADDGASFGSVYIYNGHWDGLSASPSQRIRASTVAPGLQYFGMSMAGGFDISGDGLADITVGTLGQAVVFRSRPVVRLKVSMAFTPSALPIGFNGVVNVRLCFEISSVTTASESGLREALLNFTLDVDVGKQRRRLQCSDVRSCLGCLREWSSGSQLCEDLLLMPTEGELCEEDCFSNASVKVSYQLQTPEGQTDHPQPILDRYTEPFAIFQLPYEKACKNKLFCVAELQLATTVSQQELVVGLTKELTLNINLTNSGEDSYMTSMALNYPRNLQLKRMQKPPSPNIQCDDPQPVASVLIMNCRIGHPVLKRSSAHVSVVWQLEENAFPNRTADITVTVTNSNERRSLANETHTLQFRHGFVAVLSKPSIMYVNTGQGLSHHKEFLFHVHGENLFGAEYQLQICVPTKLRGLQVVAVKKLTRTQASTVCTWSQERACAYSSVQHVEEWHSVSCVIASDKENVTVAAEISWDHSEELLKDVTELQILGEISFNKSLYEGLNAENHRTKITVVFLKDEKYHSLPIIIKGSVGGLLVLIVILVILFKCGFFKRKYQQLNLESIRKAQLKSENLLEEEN
T1 sequence (P26010 20-798 limits assumed, chain 2 of 2): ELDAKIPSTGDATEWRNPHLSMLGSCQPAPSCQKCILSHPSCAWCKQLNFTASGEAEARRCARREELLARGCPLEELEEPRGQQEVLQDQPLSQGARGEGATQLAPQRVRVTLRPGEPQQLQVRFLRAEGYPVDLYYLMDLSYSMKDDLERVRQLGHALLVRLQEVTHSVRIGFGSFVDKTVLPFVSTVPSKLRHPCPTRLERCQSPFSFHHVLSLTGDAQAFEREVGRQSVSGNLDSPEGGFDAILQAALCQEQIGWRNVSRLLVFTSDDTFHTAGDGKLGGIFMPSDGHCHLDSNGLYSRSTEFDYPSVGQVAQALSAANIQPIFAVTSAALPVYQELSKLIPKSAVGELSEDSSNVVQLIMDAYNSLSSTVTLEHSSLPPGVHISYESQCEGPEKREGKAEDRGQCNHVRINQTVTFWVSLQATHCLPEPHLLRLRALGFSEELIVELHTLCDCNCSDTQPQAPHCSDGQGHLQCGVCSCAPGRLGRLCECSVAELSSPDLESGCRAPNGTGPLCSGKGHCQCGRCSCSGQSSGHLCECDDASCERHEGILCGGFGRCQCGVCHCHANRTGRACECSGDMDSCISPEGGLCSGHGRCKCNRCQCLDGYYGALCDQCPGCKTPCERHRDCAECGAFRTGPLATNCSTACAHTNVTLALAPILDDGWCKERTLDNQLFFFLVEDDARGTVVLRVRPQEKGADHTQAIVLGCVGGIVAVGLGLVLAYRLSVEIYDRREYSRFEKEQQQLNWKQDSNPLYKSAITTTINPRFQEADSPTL

Known EC50 (read off the curve) results, listed for orientation:
| binder | EC50 (read off the curve) |
| --- | --- |
| hCD103.06A (antibody, mouse IgG1, V domains shown, also called clone 06A; hCD103.06 mAb) VH: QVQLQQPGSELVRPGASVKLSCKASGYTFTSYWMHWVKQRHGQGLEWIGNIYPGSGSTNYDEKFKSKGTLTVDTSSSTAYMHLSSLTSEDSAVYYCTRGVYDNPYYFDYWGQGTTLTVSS VL: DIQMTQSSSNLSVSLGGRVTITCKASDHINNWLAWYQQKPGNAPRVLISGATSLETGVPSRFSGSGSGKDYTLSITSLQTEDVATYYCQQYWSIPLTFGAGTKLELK | ~0.04 µg/mL |
| hCD103.07A (antibody, mouse IgG1, V domains shown, also called clone 07A) VH: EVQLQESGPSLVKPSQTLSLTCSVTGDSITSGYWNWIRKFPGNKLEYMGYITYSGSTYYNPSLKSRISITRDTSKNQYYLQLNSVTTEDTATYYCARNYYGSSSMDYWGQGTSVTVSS VL: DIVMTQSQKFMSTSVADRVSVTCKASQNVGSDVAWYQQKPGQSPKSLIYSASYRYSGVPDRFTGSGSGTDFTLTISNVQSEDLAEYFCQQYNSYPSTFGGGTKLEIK | ~0.01 µg/mL |

Then there is this binder:
(Q) Suppose we examine the binder hCD103.01A (antibody, V domains shown, Also tested labelled with AF647, conjugated with Df and labelled with 89Zr; these are written under this molecule; also called clone 01A; hCD103.01 mAb) VH: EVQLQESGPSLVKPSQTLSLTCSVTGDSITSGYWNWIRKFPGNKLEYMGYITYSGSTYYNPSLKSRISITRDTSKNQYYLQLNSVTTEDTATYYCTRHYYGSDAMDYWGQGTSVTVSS VL: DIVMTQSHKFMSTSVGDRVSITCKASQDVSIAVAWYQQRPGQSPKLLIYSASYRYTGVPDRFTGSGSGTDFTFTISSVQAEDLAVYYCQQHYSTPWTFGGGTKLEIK ; what EC50 (read off the curve) value has been reported?
(A) ~0.02 µg/mL
